Here the recorded %Inh is given for each entry.
tested on: CDK4; details: concentration: 1 μM, replicates: in singlicate; n = 1;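 further: KINOMEscan kinase panel screen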
Numbers only; they are read as %.

Record excerpt, results attached:
Mol Smiles | Target System | Unit Descriptor | %Inh
O=C(c1ccc(-c2cc(-c3c[nH]nc3-c3ccccn3)ccn2)cc1)N1CCOCC1 | CDK4 | % | 1
CNc1ncnc2[nH]ncc12 | CDK4 | % | 17
CN1c2ccc(CNc3ccc(F)cc3)cc2-c2c(cnn2C)S1(=O)=O | CDK4 | % | 0
CN1c2ccc(NCc3ccc(F)cc3)cc2-c2c(cnn2C)S1(=O)=O | CDK4 | % | 0

// next entry
If you can, please state the reported %Inh value of `O=C(NCCCN1CCOCC1)c1cccc(Nc2nccc(Nc3ccc(Oc4ccccc4)cc3)n2)c1` . 16

====

Listing of entries alongside the reported %Inh.
system: CDK4-cyclinD3; settings: concentration: 1 μM, replicates: in singlicate; n = 1
Reply numerically in %, unit not repeated.

In the examples that follow, each entry is paired with its recorded %Inh.
Compound | Value Type | Number
COc1ccc(CNC(=O)NC2CCN(c3ccnc(Nc4ccc(OC)cc4)n3)C2)cc1 (centres unmarked) [GSK1379727] | %Inh | 0
O=C(NCCNc1ccnc(Nc2ccc(F)cc2)n1)Nc1ccccc1F [GSK1379880] | %Inh | 3
COc1ccc(Nc2nccc(N3CCC(NC(=O)Nc4cccc(C(C)=O)c4)C3)n2)cc1 (centres unmarked) [GSK1379731] | %Inh | 0
COc1ccc(Nc2ncc(C#N)c(Nc3ccccc3C(N)=O)n2)cc1N1CCN(C)CC1.Cl [GSK1558669] | %Inh | 90

Could you share what %Inh was measured for Fc1ccc(-c2ncn(CCCN3CCOCC3)c2-c2ccccn2)cc1 [SB-211742] , tested on CDK4-cyclinD3? 0

Observed %Inh on CDK4-cyclinD3 for Cl.Nc1ncnc2occ(-c3ccc(NC(=O)Nc4cc(C(F)(F)F)ccc4F)cc3)c12 [SB-707548] , please. 11

Look up %Inh with CDK4-cyclinD3 for this compound: O=c1cc(N2CCOCC2)nc2n(Cc3cccc(F)c3)ccn12 [GSK2297430] 0

Lab note: need %Inh for [2H]C([2H])(c1cccc(C(F)(F)F)c1C)n1ccn2c(=O)nc(N3CCOCC3)cc12 [GSK2336394] on CDK4-cyclinD3, anyone have it? 0

Entry CC(C)Oc1ccc2c(-c3ccnc(Nc4ccc(N5CCN(C)CC5)cc4)n3)cnn2n1 [GW696155] , system CDK4-cyclinD3: what %Inh was measured? 97.8

State its %Inh on CDK4-cyclinD3: O=C(Nc1n[nH]c2cc(-c3cccc(F)c3)ccc12)C1CC1 [SB-735464] 7

So what %Inh did `O=C(NOCC1CC1)c1ccc(F)c(F)c1Nc1ccc(I)cc1Cl` get with CDK4-cyclinD3? 0

Fill in the recorded %Inh for this compound, with CDK4-cyclinD3 as test system: `CSc1ccc(-c2cc3ncnc(SCC(=O)O)c3s2)cc1` 0

Param readout = %Inh; param system = CDK4-cyclinD3; param query = N#Cc1ccc(-c2cc(-c3c[nH]nc3-c3ccccn3)ccn2)cc1 [GW693028] ; response: value 2

What is its %Inh for CDK4-cyclinD3? Entry: Cc1c2ccc(N(C)c3ccnc(Nc4cccc(S(N)(=O)=O)c4)n3)cc2nn1Cc1ccccc1.Cl.Cl [GW787226] 0

Form field - read-out: %Inh; system: CDK4-cyclinD3; submitted item: `Cc1ccc(C(=O)NCC(N)=O)cc1-n1c(C)cc(OCc2ccc(F)cc2F)c(Br)c1=O` 0

What reported %Inh corresponds to Cl.Cl.Cl.Fc1ccc(-c2ncn(C3CCNCC3)c2-c2ccnc(Nc3ccccc3)n2)cc1 [SB-238039] on CDK4-cyclinD3? 0

Return %Inh measured with CDK4-cyclinD3 given this compound: CN(C(=O)c1ccc(-c2cc(-c3c[nH]nc3-c3ccccn3)ccn2)cc1)C1CCOCC1 [GW810083] 0

Provide the documented %Inh with CDK4-cyclinD3 as the system for Cc1cccc(Cn2ccn3c(=O)cc(N4CCOCC4)nc23)c1 [GSK2297542] 0

Tell me reported %Inh for Nc1nc(-c2ccc3c(N)n[nH]c3c2)cc(N2CCCC2)n1 [GSK2227430] , tested with CDK4-cyclinD3. 0

Record Fc1ccc(-c2nn3c(OCC(F)(F)F)cccc3c2-c2ccncc2)cc1 [GW514784] : what is its %Inh with CDK4-cyclinD3? 0

State its %Inh on CDK4-cyclinD3: CN(C1=C(c2ccccc2)C(=O)NC1=O)c1ccccc1 [SB-334860] 9

Can you look up %Inh on CDK4-cyclinD3 for COC(=O)Nc1nc2cc(Oc3ccc(NC(=O)Nc4cc(F)ccc4F)cc3)ccc2[nH]1.Cl [GW701424] ? 5

Query the reported %Inh for CDK4-cyclinD3; item: Cc1nnc(-c2ccc(C)c(-c3ccc(C(=O)Nc4ccc(NS(C)(=O)=O)cc4)cc3)c2)o1 [GW702865] 0

Could you share what %Inh was measured for Cc1cn2c(=O)cc(N3CCOCC3)nc2n1Cc1cccc(Cl)c1Cl [GSK2334006] , tested on CDK4-cyclinD3? 0

Report %Inh for NS(=O)(=O)CCc1cccc(Nc2nccc(-c3c(-c4cccc(NC(=O)c5c(F)cccc5F)c4)nn4ccccc34)n2)c1 [GSK336735] tested on CDK4-cyclinD3. 0
